This collection of values is drawn from patent US9084424B2.

System: Puccinia triticina
Assay: In vivo preventive test on Puccinia triticina (wheat)
Details: preventive spray, 500 ppm of active ingredient, evaluated 8 days after inoculation

>  <SMILES NOTATION>
Cn1nc(C(F)F)c(C(=O)NC2(c3ccc(Cl)c(C(F)(F)F)c3)CC2)c1Cl

>  <ASSAY SYSTEM>
Puccinia triticina

>  <Efficacy (%)>
78

$$$$
>  <SMILES NOTATION>
CN(Cc1ncc(Cl)cc1Cl)C(=O)c1c(C(F)F)nn(C)c1Cl

>  <ASSAY SYSTEM>
Puccinia triticina

>  <Efficacy (%)>
80

$$$$
>  <SMILES NOTATION>
C=CCN(Cc1ccccc1[Si](C)(C)C)C(=O)c1c(C(F)F)nn(C)c1F

>  <ASSAY SYSTEM>
Puccinia triticina

>  <Efficacy (%)>
80

$$$$

----------
Reported logP by item:
Assay: log P by HPLC on reversed-phase column (EEC Directive 79/831 Annex V.A8)
Type: physicochemical
Settings: HPLC, reversed-phase C 18, 40° C., 0.1% aqueous formic acid and acetonitrile, linear gradient 10% to 90% acetonitrile
RESULT TYPE: logP

>  <MOLECULE>
Cn1nc(C(F)F)c(C(=O)NC(C)(C)c2ccccc2Cl)c1Cl [Example 22]

>  <RESULT TYPE>
logP

>  <NUMERIC READOUT>
3.15

$$$$
>  <MOLECULE>
Cn1nc(C(F)F)c(C(=O)NC(c2ccccc2Cl)C(F)(F)F)c1F (racemic) [Example 23]

>  <RESULT TYPE>
logP

>  <NUMERIC READOUT>
3.21

$$$$
>  <MOLECULE>
CCc1ccccc1CN(C(=O)c1c(C(F)F)nn(C)c1F)C1CCC1 [Example 12]

>  <RESULT TYPE>
logP

>  <NUMERIC READOUT>
3.63

$$$$
>  <MOLECULE>
CN(Cc1ccccc1[Si](C)(C)C)C(=O)c1c(C(F)F)nn(C)c1F [Example 103]

>  <RESULT TYPE>
logP

>  <NUMERIC READOUT>
3.78

$$$$
>  <MOLECULE>
Cn1nc(C(F)F)c(C(=O)N(CC#N)Cc2ccccc2[Si](C)(C)C)c1F [Example 97]

>  <RESULT TYPE>
logP

>  <NUMERIC READOUT>
3.52

$$$$
>  <MOLECULE>
Cn1nc(C(F)F)c(C(=O)N(Cc2ccc(Cl)cc2Cl)C2CCC2)c1F [Example 31]

>  <RESULT TYPE>
logP

>  <NUMERIC READOUT>
4.19

$$$$

----------
Assay: log P by HPLC on reversed-phase column (EEC Directive 79/831 Annex V.A8)
Format: physicochemical
Conditions: HPLC on reversed-phase column (C 18), 40° C., 0.1% aqueous formic acid and acetonitrile, linear gradient 10% to 90% acetonitrile
Reported logP by item:

>  <SMILES NOTATION>
Cn1nc(C(F)F)c(C(=O)NCc2ccc(C(C)(C)C)cc2)c1Cl

>  <logP>
3.58

$$$$
>  <SMILES NOTATION>
Cn1nc(C(F)F)c(C(=O)NCc2ccc3c(c2)CCCC3)c1F

>  <logP>
3.25

$$$$
>  <SMILES NOTATION>
CN(Cc1ccccc1Br)C(=O)c1c(C(F)F)nn(C)c1F

>  <logP>
2.71

$$$$
>  <SMILES NOTATION>
Cn1nc(C(F)F)c(C(=O)NC2(c3ccc(Cl)c(C(F)(F)F)c3)CC2)c1F

>  <logP>
3.27

$$$$

----------
Test: log P by HPLC on reversed-phase column (EEC Directive 79/831 Annex V.A8)
Assay type: physicochemical
Details: HPLC, reversed-phase C 18, 40° C., 0.1% aqueous formic acid and acetonitrile, linear gradient 10% to 90% acetonitrile
Reported logP by item:
RESULT TYPE: logP

>  <COMPOUND>
Cn1nc(C(F)F)c(C(=O)N(Cc2cc(Cl)ccc2C(F)(F)F)C2CSC2)c1Cl [Example 86]

>  <RESULT TYPE>
logP

>  <NUMERIC READOUT>
4.08

$$$$
>  <COMPOUND>
Cn1nc(C(F)F)c(C(=O)NC(C)(C)c2cc(Cl)ccc2Cl)c1Cl [Example 49]

>  <RESULT TYPE>
logP

>  <NUMERIC READOUT>
3.89

$$$$
>  <COMPOUND>
Cn1nc(C(F)F)c(C(=O)NC2(c3ccc(Cl)cc3Cl)CC2)c1F [Example 38]

>  <RESULT TYPE>
logP

>  <NUMERIC READOUT>
3.89

$$$$
>  <COMPOUND>
CC(NC(=S)c1c(C(F)F)nn(C)c1Cl)c1ccc(Cl)cc1Cl (centres unmarked) [Example 44]

>  <RESULT TYPE>
logP

>  <NUMERIC READOUT>
3.99

$$$$
>  <COMPOUND>
Cn1nc(C(F)F)c(C(=O)NC2(c3ccc(Cl)cc3Cl)CC2)c1Cl [Example 41]

>  <RESULT TYPE>
logP

>  <NUMERIC READOUT>
3.89

$$$$
